Molecular target: PRC2 containing wt EZH2 (Homo sapiens (Human), UniProt Q15910)
Sequence (Q15910 whole entry): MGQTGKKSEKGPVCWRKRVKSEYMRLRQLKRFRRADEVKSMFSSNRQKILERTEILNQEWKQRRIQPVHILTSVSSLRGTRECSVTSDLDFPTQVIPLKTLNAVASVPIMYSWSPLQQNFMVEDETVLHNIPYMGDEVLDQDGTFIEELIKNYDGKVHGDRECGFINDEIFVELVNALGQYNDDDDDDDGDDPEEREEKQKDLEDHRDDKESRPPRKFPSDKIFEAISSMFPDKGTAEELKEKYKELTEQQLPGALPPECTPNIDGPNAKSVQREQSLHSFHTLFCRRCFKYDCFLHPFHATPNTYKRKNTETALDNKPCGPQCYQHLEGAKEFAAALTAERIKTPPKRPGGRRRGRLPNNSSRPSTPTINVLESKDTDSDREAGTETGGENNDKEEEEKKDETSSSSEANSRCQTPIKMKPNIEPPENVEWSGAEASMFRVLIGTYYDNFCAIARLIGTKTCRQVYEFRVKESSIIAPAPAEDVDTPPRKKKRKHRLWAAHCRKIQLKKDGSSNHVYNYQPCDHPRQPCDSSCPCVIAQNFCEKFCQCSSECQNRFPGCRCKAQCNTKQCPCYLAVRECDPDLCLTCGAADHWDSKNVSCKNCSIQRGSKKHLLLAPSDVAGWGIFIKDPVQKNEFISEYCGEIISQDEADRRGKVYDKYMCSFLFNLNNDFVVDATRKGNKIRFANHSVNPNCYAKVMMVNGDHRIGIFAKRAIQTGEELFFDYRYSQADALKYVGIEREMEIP
Sequence (O75530 whole entry partner): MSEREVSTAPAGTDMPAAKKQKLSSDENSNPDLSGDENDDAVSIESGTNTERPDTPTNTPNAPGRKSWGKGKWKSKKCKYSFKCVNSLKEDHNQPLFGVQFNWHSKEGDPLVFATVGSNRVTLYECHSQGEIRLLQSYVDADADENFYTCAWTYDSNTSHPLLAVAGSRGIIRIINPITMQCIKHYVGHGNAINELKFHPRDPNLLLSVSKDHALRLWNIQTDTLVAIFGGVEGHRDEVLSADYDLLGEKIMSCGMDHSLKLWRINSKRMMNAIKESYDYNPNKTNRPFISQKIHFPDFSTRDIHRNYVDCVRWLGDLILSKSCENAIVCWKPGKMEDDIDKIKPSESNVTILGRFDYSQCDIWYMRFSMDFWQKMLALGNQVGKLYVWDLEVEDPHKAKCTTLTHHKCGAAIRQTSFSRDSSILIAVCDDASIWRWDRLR
Sequence (Q15022 whole entry partner): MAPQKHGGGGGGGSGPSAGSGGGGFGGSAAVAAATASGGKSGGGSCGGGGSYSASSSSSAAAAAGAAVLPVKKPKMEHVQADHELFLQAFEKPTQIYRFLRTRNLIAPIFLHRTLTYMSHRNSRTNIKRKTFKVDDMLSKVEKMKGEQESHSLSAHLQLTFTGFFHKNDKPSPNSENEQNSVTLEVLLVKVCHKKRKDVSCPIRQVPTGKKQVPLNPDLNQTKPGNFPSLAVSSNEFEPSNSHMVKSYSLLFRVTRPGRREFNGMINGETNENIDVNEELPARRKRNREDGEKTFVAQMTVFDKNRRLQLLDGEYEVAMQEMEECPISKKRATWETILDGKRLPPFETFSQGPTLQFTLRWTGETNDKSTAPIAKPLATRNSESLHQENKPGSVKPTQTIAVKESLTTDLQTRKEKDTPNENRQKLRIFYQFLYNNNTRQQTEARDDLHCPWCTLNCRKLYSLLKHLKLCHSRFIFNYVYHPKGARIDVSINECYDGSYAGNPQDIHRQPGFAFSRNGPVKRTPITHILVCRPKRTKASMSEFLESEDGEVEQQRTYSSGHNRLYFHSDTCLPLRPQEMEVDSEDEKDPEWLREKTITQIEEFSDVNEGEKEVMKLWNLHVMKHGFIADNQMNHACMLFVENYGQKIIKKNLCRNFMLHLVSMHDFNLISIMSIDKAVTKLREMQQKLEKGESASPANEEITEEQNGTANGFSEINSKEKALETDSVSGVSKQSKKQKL
Sequence (Q09028 whole entry partner): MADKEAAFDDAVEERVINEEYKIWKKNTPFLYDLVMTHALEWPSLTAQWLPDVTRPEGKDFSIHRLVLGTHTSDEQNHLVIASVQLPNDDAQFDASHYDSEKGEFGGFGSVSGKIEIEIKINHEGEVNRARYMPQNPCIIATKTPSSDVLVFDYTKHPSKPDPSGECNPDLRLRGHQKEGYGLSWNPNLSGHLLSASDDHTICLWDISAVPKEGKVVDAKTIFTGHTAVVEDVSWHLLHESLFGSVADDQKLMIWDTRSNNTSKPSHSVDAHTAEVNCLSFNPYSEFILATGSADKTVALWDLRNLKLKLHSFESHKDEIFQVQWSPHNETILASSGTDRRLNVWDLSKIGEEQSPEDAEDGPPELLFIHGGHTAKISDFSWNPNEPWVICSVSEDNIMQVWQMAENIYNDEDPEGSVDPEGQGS
Sequence (Q6ZN18 whole entry partner): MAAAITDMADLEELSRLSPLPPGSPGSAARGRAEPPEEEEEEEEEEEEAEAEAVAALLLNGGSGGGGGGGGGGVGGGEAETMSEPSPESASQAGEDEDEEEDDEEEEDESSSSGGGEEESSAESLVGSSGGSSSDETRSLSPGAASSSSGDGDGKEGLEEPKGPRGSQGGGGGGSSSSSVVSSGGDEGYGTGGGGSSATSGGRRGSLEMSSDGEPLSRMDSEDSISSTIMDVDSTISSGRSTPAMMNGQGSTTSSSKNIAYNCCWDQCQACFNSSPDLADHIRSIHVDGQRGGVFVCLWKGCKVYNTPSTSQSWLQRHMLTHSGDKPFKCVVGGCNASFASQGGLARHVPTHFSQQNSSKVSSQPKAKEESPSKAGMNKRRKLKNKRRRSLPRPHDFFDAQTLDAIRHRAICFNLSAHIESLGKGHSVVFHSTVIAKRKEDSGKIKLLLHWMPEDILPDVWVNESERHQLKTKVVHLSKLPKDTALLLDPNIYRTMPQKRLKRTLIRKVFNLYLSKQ
Assay: EZH2 residence time assay (100-fold dilution of pre-formed enzyme-inhibitor complex)
Type: biochemical

[
  {
    "compound": "COC1CN(C2CCC([C@@H](C)n3c(C)c(C(=O)NCc4c(SC)cc(C)[nH]c4=O)c4cccnc43)CC2)C1 (single isomer, unassigned) [drawing 259]",
    "residence time": "300 to 2100 min"
  },
  {
    "compound": "Cc1cc(C)c(CNC(=O)c2c(C)n([C@H](C)C3CCN(CC(C)(C)O)CC3)c3ccccc23)c(=O)[nH]1",
    "residence time": "< 30 min"
  }
]
